Molecule: *c1cc2c(cc1C)-c1cc(C)c(N3C(=O)c4ccc(-c5ccc6c(c5)C(=O)N(*)C6=O)cc4C3=O)cc1S2(=O)=O (repeat unit)
CH4 permeability: 0.037 Barrer
//
Molecule: *Oc1ccc(S(=O)(=O)c2ccc(Oc3ccc(C(c4ccc(*)cc4)(C(F)(F)F)C(F)(F)F)cc3)cc2)cc1 (repeat unit)
CH4 permeability: 0.345 Barrer
//
Molecule: *C/C=C(/Cl)C* (repeat unit)
CH4 permeability: 3.28 Barrer
//
Molecule: *Oc1ccc(S(=O)(=O)c2ccc(Oc3ccc4ccc(*)cc4c3)cc2)cc1 (repeat unit)
CH4 permeability: 0.05 Barrer

----------
Parameter: CH4 permeability. Scope: all listed entries.

Compound: */C(C)=C(/*)[Si](C)(C)C(C)C (repeat unit)
CH4 permeability / Barrer: 360
--
Compound: */C(C)=C(/*)c1ccc([Si](C)(C)C)cc1 (repeat unit)
CH4 permeability / Barrer: 200
--
Compound: *CCO* (repeat unit)
CH4 permeability / Barrer: 4.85
--
Compound: *Oc1c(Br)cc(C(C)(C)c2cc(Br)c(OC(=O)c3cc(C(*)=O)cc(C(C)(C)C)c3)c(Br)c2)cc1Br (repeat unit)
CH4 permeability / Barrer: 0.853
--
Compound: *Oc1ccc(S(=O)(=O)c2ccc(Oc3ccc(C(C)(C)c4ccc(*)cc4)cc3)cc2)cc1 (repeat unit)
CH4 permeability / Barrer: 0.258

----------
Lab note - cut at 0.6 Barrer for CH4 permeability: Yes if strictly below, No if not.

Compound: *Oc1cc2c(cc1O*)C(=O)N(c1c(C)c(C)c(-n3c(=O)c4cc5oc6cc7c(cc6oc5cc4c3=O)C3(C(C)C)c4ccccc4C7(C(C)C)c4cc(*)c(*)cc43)c(C)c1C)C2=O (repeat unit)
Discrete Label: No

Compound: *c1ccc(Oc2ccc(-c3ccc(-c4ccc(Oc5ccc(N6C(=O)c7ccc(C(c8ccc9c(c8)C(=O)N(*)C9=O)(C(F)(F)F)C(F)(F)F)cc7C6=O)cc5)c(C(F)(F)F)c4)cc3)cc2C(F)(F)F)cc1 (repeat unit)
Discrete Label: No

Compound: *c1ccc(-c2ccc(C(*)(c3ccccc3)C(F)(F)F)cc2)cc1 (repeat unit)
Discrete Label: No

Compound: *=CC1CC(C=*)C2C(=O)N(C3CCCC3)C(=O)C12 (repeat unit)
Discrete Label: Yes

Compound: *OCC(*)CCl (repeat unit)
Discrete Label: No

Compound: *Oc1ccc(C(=O)c2ccc(Oc3ccc(C(c4ccc(*)cc4)(C(F)(F)F)C(F)(F)F)cc3)cc2)c2ccccc12 (repeat unit)
Discrete Label: Yes

Compound: *Oc1ccc(-c2ccc(Oc3ccc(S(=O)(=O)c4ccc(*)cc4)cc3)cc2)cc1 (repeat unit)
Discrete Label: Yes

Compound: *c1ccc(C2(c3ccc(N4C(=O)c5ccc(C(c6ccc7c(c6)C(=O)N(*)C7=O)(C(F)(F)F)C(F)(F)F)cc5C4=O)cc3)c3cc(C(C)(C)C)ccc3-c3ccc(C(C)(C)C)cc32)cc1 (repeat unit)
Discrete Label: No

Compound: *c1ccc(Oc2ccc(C(c3ccc(Oc4ccc(-n5c(=O)c6cc7c(=O)n(*)c(=O)c7cc6c5=O)cc4C(F)(F)F)cc3)(C(F)(F)F)C(F)(F)F)cc2)c(C(F)(F)F)c1 (repeat unit)
Discrete Label: No

Compound: *c1cc(C)c(C)c(N2C(=O)c3ccc(Oc4cc(C)ccc4Oc4ccc5c(c4)C(=O)N(*)C5=O)cc3C2=O)c1C (repeat unit)
Discrete Label: Yes

Compound: *CC(*)c1ccc(Br)cc1 (repeat unit)
Discrete Label: Yes

Compound: *Oc1ccc(C2(c3ccc(Oc4ccc(S(=O)(=O)c5ccc(*)cc5)cc4)c(C)c3)OC(=O)c3ccccc32)cc1C (repeat unit)
Discrete Label: Yes

Compound: *=CC1CC(C=*)C2C(=O)N(C34CC5CC(CC(C5)C3)C4)C(=O)C12 (repeat unit)
Discrete Label: Yes

Compound: *Nc1ccc(S(=O)(=O)c2ccc(NC(=O)c3cc(C(*)=O)cc(-c4ccccc4)c3)cc2)cc1 (repeat unit)
Discrete Label: Yes

----------
Quantity Kind: H2 permeability (Barrer)

Compound: *c1ccc(Oc2ccc3ccccc3c2-c2c(Oc3ccc(N4C(=O)c5ccc(C(c6ccc7c(c6)C(=O)N(*)C7=O)(C(F)(F)F)C(F)(F)F)cc5C4=O)cc3C(F)(F)F)ccc3ccccc23)c(C(F)(F)F)c1 (repeat unit)
Quantity Kind: H2 permeability
Unit: Barrer
Result Value: 36.8

Compound: *Oc1ccc(S(=O)(=O)c2ccc(Oc3ccc(C(c4ccc(*)cc4)(C(F)(F)F)C(F)(F)F)cc3)cc2)cc1 (repeat unit)
Quantity Kind: H2 permeability
Unit: Barrer
Result Value: 15.1

Compound: *Oc1cc2c(cc1O*)C1(c3cc(C)ccc3-2)c2cc(C)ccc2-c2cc3c(cc21)Oc1c(C#N)c(*)c(*)c(C#N)c1O3 (repeat unit)
Quantity Kind: H2 permeability
Unit: Barrer
Result Value: 4430

Compound: *OCCCCCC(*)=O (repeat unit)
Quantity Kind: H2 permeability
Unit: Barrer
Result Value: 5.06

Compound: *Oc1c(C)cc(*)cc1C (repeat unit)
Quantity Kind: H2 permeability
Unit: Barrer
Result Value: 68.7

Compound: *CC(*)F (repeat unit)
Quantity Kind: H2 permeability
Unit: Barrer
Result Value: 0.35

Compound: *c1c(C)c(C)c(N2C(=O)c3ccc(Oc4c(C)cccc4Oc4ccc5c(c4)C(=O)N(*)C5=O)cc3C2=O)c(C)c1C (repeat unit)
Quantity Kind: H2 permeability
Unit: Barrer
Result Value: 51

Compound: *CC(*)c1ccc([Si](C)(C)CCCC(F)(F)F)cc1 (repeat unit)
Quantity Kind: H2 permeability
Unit: Barrer
Result Value: 109

Compound: *c1c(C)c(C)c(N2C(=O)c3ccc(Oc4c(C)ccc(C)c4Oc4ccc5c(c4)C(=O)N(*)C5=O)cc3C2=O)c(C)c1C (repeat unit)
Quantity Kind: H2 permeability
Unit: Barrer
Result Value: 100

Compound: *Oc1ccc(C(C)(C)c2ccc(OC(=O)c3cccc(C(*)=O)c3)c(C)c2)cc1C (repeat unit)
Quantity Kind: H2 permeability
Unit: Barrer
Result Value: 7.79

Compound: *Oc1ccc(-c2ccc(Oc3c(F)c(F)c(COC(C4CCCC(C(OCc5c(F)c(F)c(*)c(F)c5F)(C(F)(F)F)C(F)(F)F)C4)(C(F)(F)F)C(F)(F)F)c(F)c3F)cc2)cc1 (repeat unit)
Quantity Kind: H2 permeability
Unit: Barrer
Result Value: 20

Compound: *C/C=C\C* (repeat unit)
Quantity Kind: H2 permeability
Unit: Barrer
Result Value: 41.9

Compound: *Oc1ccc(C23CC4CC(C2)CC(c2ccc(Oc5ccc(S(=O)(=O)c6ccc(*)cc6)cc5)cc2)(C4)C3)cc1 (repeat unit)
Quantity Kind: H2 permeability
Unit: Barrer
Result Value: 27.8

Compound: *c1ccc(C(C)(C)c2ccc(-n3c(=O)c4cc5c(=O)n(*)c(=O)c5cc4c3=O)cc2)cc1 (repeat unit)
Quantity Kind: H2 permeability
Unit: Barrer
Result Value: 17

Compound: *Oc1ccc(Cc2ccc(Oc3c(F)c(F)c(COC(C4CCCC(C(OCc5c(F)c(F)c(*)c(F)c5F)(C(F)(F)F)C(F)(F)F)C4)(C(F)(F)F)C(F)(F)F)c(F)c3F)cc2)cc1 (repeat unit)
Quantity Kind: H2 permeability
Unit: Barrer
Result Value: 18

----------
Quantity Kind: log10 of O2 permeability (log10 of the value in Barrer)

Compound: *c1ccc(Sc2ccc(Sc3ccc(Sc4ccc(N5C(=O)c6ccc(C(c7ccc8c(c7)C(=O)N(*)C8=O)(C(F)(F)F)C(F)(F)F)cc6C5=O)cc4)cc3)cc2)cc1 (repeat unit)
Result Value: 0.24
--
Compound: *CC(*)[Si](C)(C)c1ccccc1 (repeat unit)
Result Value: 0.39
--
Compound: *Oc1c(Br)cc(C(c2cc(Br)c(OC(*)=O)c(Br)c2)(C(F)(F)F)C(F)(F)F)cc1Br (repeat unit)
Result Value: 0.99
--
Compound: *Nc1ccc(*)cc1OCC (repeat unit)
Result Value: -0.21
--
Compound: *NCCCCCC(*)=O (repeat unit)
Result Value: -1.44
--
Compound: *C[Si](*)(C)C (repeat unit)
Result Value: 2.00
--
Compound: *C(C)=C(*)CCCCCCC (repeat unit)
Result Value: 1.86
--
Compound: *C1C(*)C2CC1C1CC([Si](C)(C)C)C21 (repeat unit)
Result Value: 3.00
--
Compound: *Oc1ccc(C(c2ccc(Oc3c(F)c(F)c(COC(C4CCCC(C(OCc5c(F)c(F)c(*)c(F)c5F)(C(F)(F)F)C(F)(F)F)C4)(C(F)(F)F)C(F)(F)F)c(F)c3F)cc2)(C(F)(F)F)C(F)(F)F)cc1 (repeat unit)
Result Value: 0.58

----------
Quantity Kind: log10(CH4 permeability) (log10 of the value in Barrer)

Compound: *c1ccc2c(c1)-c1nc3ccc(-c4ccc5c(c4)nc4n5C(=O)c5cc(C(c6ccc(-c7nc8cc(C(c9ccc%10oc(-c%11ccc(C(*)(C(F)(F)F)C(F)(F)F)cc%11)nc%10c9)(C(F)(F)F)C(F)(F)F)ccc8o7)cc6)(C(F)(F)F)C(F)(F)F)ccc5-4)cc3n1C2=O (repeat unit)
Quantity Kind: log10(CH4 permeability)
Result Value: 1.66
//
Compound: *CC(*)Cl (repeat unit)
Quantity Kind: log10(CH4 permeability)
Result Value: -1.58
//
Compound: */N=C1/c2cc(C(c3ccc4c(c3)C(=O)n3c-4nc4c(Oc5ccc(*)c(*)c5)cccc43)(C(F)(F)F)C(F)(F)F)ccc2C(=O)N1* (repeat unit)
Quantity Kind: log10(CH4 permeability)
Result Value: -0.27
//
Compound: *OCC1OC(COCC)C(*)C(OCC)C1OCC (repeat unit)
Quantity Kind: log10(CH4 permeability)
Result Value: 0.79
//
Compound: *c1ccc(Oc2ccc(S(=O)(=O)c3ccc(Oc4ccc(S(*)(=O)=O)cc4)cc3)cc2)cc1 (repeat unit)
Quantity Kind: log10(CH4 permeability)
Result Value: -0.89
//
Compound: *Oc1ccc(C(c2ccc(Oc3c(F)c(F)c(COC(C4CCCC(C(OCc5c(F)c(F)c(*)c(F)c5F)(C(F)(F)F)C(F)(F)F)C4)(C(F)(F)F)C(F)(F)F)c(F)c3F)cc2)(C(F)(F)F)C(F)(F)F)cc1 (repeat unit)
Quantity Kind: log10(CH4 permeability)
Result Value: -0.26
